Data credit: the supplement of paper PMC9170038

Tested on: MS2 coat protein
Test: apparent KD of MS2 coat protein; designed switch direction (-1 OFF switch, 1 ON switch): -1; higher = weaker reporter binding
Details: input ligand: FMN 200 uM
property.name: apparent KD of MS2 coat protein (nM)
Please state the figure in nM; there is no need to write the unit.

What value of measured apparent KD of MS2 coat protein is listed for CCAAGCUUAUUCAUUAACAACAUGAGGAUCACCCAUGUGUAAGCAAUUAUGUUUGGGCUCUUUAGUGCUCGUCUUAU [Sensor-V1 #21] (Eterna round: R97, puzzle: Sensor, turn-off variant 1) ?
13.7

What value of measured apparent KD of MS2 coat protein is listed for CCCACGUGAGGAUAUUCAACGGUAAGCGAUCUAUGCACCUUGAAGAAGGCACAUGAGGAUCACCCAUGUCCUAA [Eternabot (L1) Solution 44] (Eterna round: R97, puzzle: Exclusion 4) ?
44.8

What value of measured apparent KD of MS2 coat protein is listed for AGCCUAGCAGGAUAUGCCCGGGAUAACAUGAGGAUCACCCAUGUGACUGAUUGAUGUCUUGCAGAAGGGCUAGGGA [JL-EX5-4.03 ViennaUCT mod] (Eterna round: R97, puzzle: Exclusion 5) ?
211

What value of measured apparent KD of MS2 coat protein is listed for UUAGAGUCAGGAUAUGCAGCUCCCUGUAGGGCCGAACAGCAGUAGAAGGGACAUGAGGAUCACCCAUGUGAUAG [Eternabot (L2) Solution 52] (Eterna round: R97, puzzle: Exclusion 4) ?
86.1

What value of measured apparent KD of MS2 coat protein is listed for UAAUUGAUUAAUAGAUUAUACAUGAGGAUCACCCAUGUAGGUCCUACGUGCCAUUUAAGUAGCUCGUCUUAUUAUUA [Sensor-V1 #66] (Eterna round: R97, puzzle: Sensor, turn-off variant 1) ?
40.2

What value of measured apparent KD of MS2 coat protein is listed for GUUUUCAGACGGAGAUCCUACAUGAGGAUCACCCAUGUCUCUCUUGUUUUUUGCUCGUCUUAUCCUCCUCUGUUCUC [Elimod 31 - Jieux - Sensor, turn-off variant 1] (Eterna round: R97, puzzle: Sensor, turn-off variant 1) ?
467

What value of measured apparent KD of MS2 coat protein is listed for CGGCUACGAUGAGGAUAUACGCACAUGAGGAUCACCCAUGUAAAUCACGGGUAAAGAUCUUCAUCGUAGAAGGCAUAAGGGCCC [Edarbelabe] (Eterna round: R96, puzzle: Exclusion NG 2) ?
31.8

###

Tested on: MS2 coat protein
Experiment: apparent KD of MS2 coat protein; higher = weaker reporter binding
Conditions: Eterna round: R107; input ligand: theophylline 2 mM
property.name: apparent KD of MS2 coat protein
Answer with the number, then the unit.

// fetch MS2 coat protein apparent KD of MS2 coat protein for UGAGUUCGCUGAUGGGCUAAGUCAGGUGAUACCAGCCACUCCCGCGGCCCUUGGCAGCACAUGAGGAUCACCCAUGUAGAACUUG [Vexetela]
374 nM

// fetch MS2 coat protein apparent KD of MS2 coat protein for AAGUGGCACGGAAGGAGCGAGUUUACCUAGAUAACAUGAGGAUCACCCAUGUAUAAUGGGACUCAGGUAGGUCGCCGUUGUCACU [#29 Same State - Arginine B]
32.8 nM

// fetch MS2 coat protein apparent KD of MS2 coat protein for UGUUUUGUGGGAAGGAGCGCAUACUUCACAUGAGGAUCACCCAUGUCAAGACGUGAGUCAGUGCAGGUAGGUCGCCUAGUUAAGA [Same State - Arginine B (Freestyle 16)]
61.9 nM

// fetch MS2 coat protein apparent KD of MS2 coat protein for UAUAUAGAAGGAAGUCAUAUAGAUGCAGAAGGAGCGUAGGAAACUACAGGUAGGUCGCUGAGGUACAUGAGGAUCACCCAUGUAG [SSArg A #15 Slice of Pi]
24.9 nM

// fetch MS2 coat protein apparent KD of MS2 coat protein for UAUCGUCAGACGGCCGCCACUAGAACAUGAGGAUCACCCAUGUACGGCCGCCCGGUGUGAUCCACUAGGACCGGGUCUGACGAAU [(Trp1)-(Ms2)-(T)'-(M)'-(Trp2)_Design23]
95.7 nM

// fetch MS2 coat protein apparent KD of MS2 coat protein for ACUAGUUGUGCAGAUACCAGGCACGAGGAUCACCCGUGUUUGGGAUGUUCGCAUCUUCCUGUCCCUUGGCAGCUGUACAUCUAGA [Omei Theo B Exc v9]
155 nM

###

Tested on: MS2 coat protein
Assay: apparent KD of MS2 coat protein, switch OFF state (with FMN for OFF switches, without FMN for ON switches); designed switch direction (-1 OFF switch, 1 ON switch): -1; higher = weaker reporter binding
Settings: FMN input: 0 or 200 uM; Eterna round: R93 (includes R88 designs)
# label = fulfilled if apparent KD of MS2 coat protein >= 40 nM else not fulfilled

Check this sequence for apparent KD of MS2 coat protein at or above 40 nM: AACUGACAUGAGGAUCACCCAUGUCAGGAUAUGACUUGACGAAAAAAAACAUGUCAUGUCAGAAGGGACAUGGA [Design 89: Sub-opt Z]
not fulfilled

Check this sequence for apparent KD of MS2 coat protein at or above 40 nM: AGCACGUCAGGAUAUACGAACACAAAGGGUAACAACAAGGGACAUGAGGAUCACCCAUGUAGAAGGGACAAGCA [Diamond 95]
fulfilled

Check this sequence for apparent KD of MS2 coat protein at or above 40 nM: AACUAGCUAGGAUAUACAUGAGGAUCACCCAUGUAAAAAAAAAAAAAAAGAUCAAAAUGUAGAAGGAGCUAGUA [Design 2 - Brourd - Exclusion 3]
fulfilled

Check this sequence for apparent KD of MS2 coat protein at or above 40 nM: AGAAAGUCAGGAUAUGCGAAGGCGUCUGAUAGACGAGGCUAGCAGAAGGGACAUGAGGAUCACCCAUGUGAAGA [Mat - Exclusion 4 - Eli mod - D85]
fulfilled

Check this sequence for apparent KD of MS2 coat protein at or above 40 nM: AACUGACAUGAGGAUCACCCAUGUCAGGAUAUGCUUCAUAAAAAGAAACAAAAAUGAUGCAGAAGGGAUAUGGA [Design 35 :P Sub-opt 11]
not fulfilled

Check this sequence for apparent KD of MS2 coat protein at or above 40 nM: AAUAAACAUGAGGAUCACCCAUGUGAGGAUAUACAAAUAAAUAAAAAUAAAAUAAAAAGUAGAAGGCACAAUAA [JR_Exc001_Sub001]
not fulfilled

Check this sequence for apparent KD of MS2 coat protein at or above 40 nM: AAAAAGUCAGGAUAUGUAGCAUGAUACGAAAGUAUCAUGCUACAGAAGGGACAUGAGGAUCACCCAUGUGAUCA [Ex4: 938]
not fulfilled

Check this sequence for apparent KD of MS2 coat protein at or above 40 nM: AACAGGACAGGAUAUACAUGAGGAUCACCCAUGUCACAACAAAGCAGCGCAACACAAAGUAGAAGGGUCAUGGA [Ruby 13]
fulfilled

Check this sequence for apparent KD of MS2 coat protein at or above 40 nM: AAACCACAUGAGGAUCACCCAUGUCAGGAUAUGAACGAAAAUAAAUAAAAAUAAAAGUUCAGAAGGGACAAAAA [66%, Wbt, 13]
fulfilled

Check this sequence for apparent KD of MS2 coat protein at or above 40 nM: AACAGGUUAGGAUAUAUCCAACAAAUAAAAAAAAUAUAAGGAUAGAAGGAACAUGAGGAUCACCCAUGUUAACA [May 30]
not fulfilled

Check this sequence for apparent KD of MS2 coat protein at or above 40 nM: CCCUCACAUGAGGAUCACCCAUGUUAGGAUAUCUACCAGGAGCCUAAAAUGGCCCAACGGAGAAGGAACGUGCA [Arbire]
not fulfilled

Check this sequence for apparent KD of MS2 coat protein at or above 40 nM: AAAAAACAUGAGGAUCACCCAUGUCAGGAUAUACGAUAAAAAAAAAAAAAAAAAAAAUGUAGAAGGGACAAAAA [Simple 1]
fulfilled

Check this sequence for apparent KD of MS2 coat protein at or above 40 nM: AGUAGUACAGGAUAUACAUGAGGAUCACCCAUGUGAAAAAUAAGUGGCGUACCACAAAGUAGAAGGGUACUACA [Mat - Exclusion 3 - JL mod - D37]
fulfilled

Check this sequence for apparent KD of MS2 coat protein at or above 40 nM: UAAAGGCGAGGAUAUACAUGAGGAUCACCCAUGUGAAUAAAUAAGAAAAUAAAAGAAAGUAGAAGGCGCAAGAA [LROPPY Exclusion 3 - v03_deltaG=1.9 break up As mixed]
fulfilled

Check this sequence for apparent KD of MS2 coat protein at or above 40 nM: AAAAAGGCAGGAUAUACGAGUCAAAGAAAAGACAAAAGGAGACAUGAGGAUCACCCAUGUAGAAGGGCCAAAAA [Fiskers exclusion D2 62% 5]
fulfilled

Check this sequence for apparent KD of MS2 coat protein at or above 40 nM: GCUGUGCAAGGAUAUACAUGAGGAUCACCCAUGUGAGAGAAAAAAGUGAGAAAGAAAAGUAGAAGGUGCGUAGG [salish99-ex3-99]
fulfilled

Check this sequence for apparent KD of MS2 coat protein at or above 40 nM: AUCAUGUAAGGAUAUAUAAGAAAAGAAAAGAAAGAAAAGAAAUAGAAGGUACAUGAGGAUCACCCAUGUAAGAA [EteRNA is fun!]
not fulfilled

Check this sequence for apparent KD of MS2 coat protein at or above 40 nM: AAGAAGGUAGGAUAUACUAAAGAAAUAAAAAGAAAGAAAGAACAUGAGGAUCACCCAUGUAGAAGGGCCAAGAA [Merkare]
not fulfilled

Check this sequence for apparent KD of MS2 coat protein at or above 40 nM: AGUUGGCGAGGAUAUACAUGAGGAUCACCCAUGUGAAAAAAGGGCUCGAAAGAGAAAAGUAGAAGGCGCUGACA [73%, Moding Norbert Elias, 7]
fulfilled

Check this sequence for apparent KD of MS2 coat protein at or above 40 nM: AACAUGUGAGGAUAUUUAAGAAAAGAAAAGAAAGAAAAGAAAAAGAAGGCACAUGAGGAUCACCCAUGUAAGAA [EteRNA is fun!]
not fulfilled

Check this sequence for apparent KD of MS2 coat protein at or above 40 nM: AGUGAGUCAGGAUAUGACUGAAGAAUAAAAGAAAUAACAAGUCAGAAGGGACAUGAGGAUCACCCAUGUACACA [May 59]
not fulfilled

Check this sequence for apparent KD of MS2 coat protein at or above 40 nM: AGAGACAGAGGAUAUACAUGAGGAUCACCCAUGUAAAAGAAAGAAAAGGGAAAGAAAAGUAGAAGGCUGAGAGA [Ruby 66]
not fulfilled

Check this sequence for apparent KD of MS2 coat protein at or above 40 nM: AGAAAGUCAGGAUAUACAGAAAAAAAAACGAAAAAAAAUCUGUAGAAGGGACAUGAGGAUCACCCAUGUAAAGA [Mat - Exclusion 4 - Mayanna - D124]
not fulfilled

Check this sequence for apparent KD of MS2 coat protein at or above 40 nM: UCCGGACAUGAGGAUCACCCAUGUGAGGAUAUAUAAAGUGGGACUGGAAACAGGCCCAAUAGAAGGCACAUGAC [Atatesin]
not fulfilled

Check this sequence for apparent KD of MS2 coat protein at or above 40 nM: AACUAGUCAGGAUAUACGAACAUGUCAAAAAACAUAAAGGGACAUGAGGAUCACCCAUGUAGAAGGGACUAACA [74%, Web mod - With 5 less G's]
fulfilled
